biological target: RSV postfusion F (postF, F deltaFP) (Respiratory syncytial virus); test: BLI, IgG on sensor, 100 nM antigen
Attribute measured: Kd (nM)
Form entry: value (nM) — number only.

Worked examples follow.
ADI-41273 (antibody, V domains shown) VH: EVQLLESGGDLVRPGGSLRLSCTASGFSFSSSEMNWVRQAPGKGLEWVASINSGGDDIYYADSVKGRFTISRDNAKNSLSLQMDSLRAEDTALYYCARSRSGYSSGWSRFFGNWGQGTLVTVSS VL: QSALTQPRSVSGSPGQSVTISCTGTISDIGAYNYVSWYQQHPGKAPKVMIYDVSKRPSGVPDRFSGSKSGFTASLTISGLQAEDEADYYCCSYAGRWVFGGGTKLTVL = 1.17
ADI-41270 (antibody, V domains shown) VH: EVQLVESGGGVVQPGQSLRLSCAASGFTFSSFAMHWVRQAPGKGLEWVAVISYDGSNKYYADSVKGRFTISRDNSKNTLSLQVNSLRAEDTAVYYCARVSAEGSMGRFSDFNYWGLGTLVTVSS VL: QSALTQPASVSGSPGQSITISCTGTSSDVGSYNLVSWYQQHPGKAPKLMIYEVRKRPSGVSNRFSGSKSGNTASLTISGLQAEDEADYYCCSYAGSDTYVFGTGTKLTVL = 0.617

Now, please, on to the next binder.
Exam item: Can you share its Kd? I mean this binder: ADI-41315 (antibody, V domains shown) VH: EVQLLESGPGLVKPSETLSLTCAVSGGSISNYYWSWIRQPPGKGLEWIAYISYSGTTNYNPSLESRVTISVDTSKNQFSLKLNSVTAADTAVYYCARHEFLVLPDVWGQGTLVTVSS VL: ETTLTQSPGTLSLSPGERATLSCRASQSVSSTFLAWYQQKPGQAPRLLIYAASSRATGIPDRFSGSGSGTDFTLIISRLEPEDFAVYYCQQYRSSPFSFGPGTKVEIK
Marked response: 1.03
